# protocol_description: yeast display, Sf9 membrane polyspecificity reagent, FACS + sequencing; frameworks hold sequencing errors

[
  {
    "macromolecule_sequence": "QVQLVESGGGLVQAGGSLRLSCAASGSTFSSNAMGWYRQAPGKERELVAAINRTGNTYYADSVKGRFTISRDNAKNTVYLQMNSLKPEDTAVYYCNTDLNLYRGGGYWGQGTQVTVSS",
    "polyreactivity (PSR sort gate)": "low polyreactivity"
  },
  {
    "macromolecule_sequence": "QVQLVESGGGLVQAGGSLRLSCAASGFTFVRYAMGWDSQAPGTERELVAAMSRSGGSTYYADSVKGRFTISRDNAKNTVYLQMNSLKPEDTAVYYCAADIKGRTGDAYDYWGQGTQVTVSS",
    "polyreactivity (PSR sort gate)": "low polyreactivity"
  },
  {
    "macromolecule_sequence": "QVQLVESGGGLVQAGGSLRLSCAASGRTYKYYAMGWYRQAPGKERELVAAISRGGSTNYADSVKGRFTISRDNAKKTVYLQVNSLKPEDTAVYYCARRYIVQSGDDYWGQGTQVSVSS",
    "polyreactivity (PSR sort gate)": "low polyreactivity"
  }
]

* * *

# protocol_description: yeast display, Sf9 membrane polyspecificity reagent, FACS + sequencing; frameworks hold sequencing errors
measured_property: polyreactivity (PSR sort gate)

Solved cases below.
[
  {
    "macromolecule_sequence": "QVQLVESGGGLVQAGGSLRLSCAASGSIFDRNAMGWYRQAPGKERELVATITWSGVSTYYADSVKGRFTISRDNAKNTVYLQMKSLKPEDTAVYYCYADYSYRHWYDPGQYGQAMGYWGQGTKVTVSS",
    "value": "low polyreactivity"
  },
  {
    "macromolecule_sequence": "QVQLVESGGGLVQAGGSLRLSCAASGSIFGAYTMGWYRQAPGKERELVAAISIGGSTNYADSVKGRFTISRDNAKNTVYLQMNSLKPEDTAVYYCAAYRQANRYGGEDYWGLGTQVTVSS",
    "value": "high polyreactivity"
  },
  {
    "macromolecule_sequence": "QVQLQESGGGLVQAGGSLRLSCAASGSISILQSMGWYRQAPGKERELVAGINWGATTYYADSVKGRLTTSRDYAKNTVYLQLNSLKPEDTGVYYCAFQTYFTYPLLYWGQGTQVNVSS",
    "value": "low polyreactivity"
  },
  {
    "macromolecule_sequence": "QVQLVESGGGLVQAGGSLRLSCAASGTFQYNAMGWYRQAPGKERELLAAITSGGSTNYADSVKGRFTISRDNAKNTVYLQMNSLKPEDTAVYYCAAVRRYRASRGSLYYYWGQGTQVTVSS",
    "value": "high polyreactivity"
  },
  {
    "macromolecule_sequence": "QVQLVESAGGLVQAGGSLRLSCAASGRTFGWYAMGWYRQAPGKERELVAAITSSDDSTYYADSVKGRFTISRDNAKNTVYLQMNSLKPEDTEVYYCNKVKYFARSAYGYWGLGTQVTVSS",
    "value": "low polyreactivity"
  },
  {
    "macromolecule_sequence": "QVQLVESGGGLVQAGGSLRLSSAASGFTFPAYTMGWSRQAPGKERELVAAITSSGGNTYYADSVKGRFTISRDNAKNTVYLQMNSLKPEDTAVYYCAADWDYPYDEAVSKDIDYDYWGQGTQVTVSS",
    "value": "low polyreactivity"
  },
  {
    "macromolecule_sequence": "QVQLVESGGGLVQAGGSLRLSCAASGNTFYRNAMGWYRQAPGKERELVAGISNGGSTNYADSVKGRFTISRDNAKNTVYLQMNSLKPEDTAVYYCAKDEPKVSRAFDYWGQGTQVTVSS",
    "value": "low polyreactivity"
  },
  {
    "macromolecule_sequence": "QVQLVESGGGLVQAGGSLRLSCAASGSTFWAYALGWYRHAPGKERELVAAITTGGGRTFYADSVMGRFTISRDNGKNTVYLQLNSLIPEDTAVYYCGAVSQSYRMYYWGQGTQVTVSS",
    "value": "low polyreactivity"
  },
  {
    "macromolecule_sequence": "QVQLVESGGGLVQAGGSLRLSCAASGRIFGVNAMGWYRQAPGKERELVAAISWSGGSTYYADSVKGRFTISRDNAKNTVYLQMNSLKPEDTAVYYCAADIWFYTYYLGQGTQVTVSS",
    "value": "high polyreactivity"
  },
  {
    "macromolecule_sequence": "QVQLVESGGGLVQAGGSLRLSCAASGSIFLSYDMGWYRQAPGNESELVAAITQSGGSTYYADSVKGRFTISRDNAKNTVYLQMNSLKPEDTAVYYCAADYGYFPQETYPTYGYYYWGQGTQVTVSS",
    "value": "low polyreactivity"
  }
]

Attention now turns to another entry.
Qu. Query: polyreactivity (PSR sort gate); subject: QFQLEESGRGLVQAGGSLRLSCAASGRIFRYYAMGWYRQAPGKERELVAGISWRGSSTYYADSVKGRFTISRDNAKNTVYLQMNSLKPEDTAVYYCAARKASGRFGYWGQGTQVTVSS
Ans. high polyreactivity
